procedure.text: Cmax in BALB/c mouse serum at 100 mg/kg, sc TID for 4 weeks by HPLC method
Format: ADME, organism-based
Parameters: dose 100 mg/kg, route subcutaneous
result.type: Cmax (ng/mL)
Lab book: enter the figure in ng/mL, no units written.

-- ask Suppose we examine the compound COc1c(N2CCNC(C)C2)c(F)cc2c(=O)c(C(=O)O)cn(C3CC3)c12 (stereo unspecified) ; what Cmax value has been reported?
-- reply 18000

---

procedure.text: Cmax in BALB/c mouse serum at 25 mg/kg, sc TID for 4 weeks by HPLC method
Assay type: ADME, organism-based
Design: dose 25 mg/kg, route subcutaneous
result.type: Cmax

-- ask Suppose we examine the molecule CC(=O)NC[C@H]1CN(c2ccc(N3CCOCC3)c(F)c2)C(=O)O1 [LINEZOLID] ; what Cmax value has been reported?
-- reply 50000 ng/mL
